Experiment: Pharmacokinetics in dogs (plasma concentration by HPLC)
Format: in vivo, dog (beagle)
Conditions: dog, plasma, po, 2 mg/kg/day, Dog 1, day 1; 2 mg/kg/day PO; read-out: AUCO- (to infinite time)
parameter: AUC(0-inf) (ng·h/mL)

Cc1cc(Nc2nccc(-c3ccncc3)n2)ccc1N.Cl.Cl [Compound 2, reference compound]	520

[P] CCN(CC)CCOc1ccc(Nc2nccc(-c3ccncc3)n2)cc1.Cl.Cl [Compound 3, reference compound]
[Q] c1cc(Nc2nccc(-c3cccs3)n2)cc(OCCn2ccnc2)c1
stdin: Task for the reader: decide whether P or Q has the larger AUC(0-inf). // caller expects the label of the chosen entry
stdout: Q
(Q: 2480 ng·h/mL, P: 374 ng·h/mL)
